Target: GRIP2_5, Q9C0E4
Sequence (Q9C0E4 544-642): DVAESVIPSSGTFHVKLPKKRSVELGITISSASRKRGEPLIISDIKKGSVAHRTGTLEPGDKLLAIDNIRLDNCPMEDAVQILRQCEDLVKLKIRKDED
Test: holdup assay
Parameters: key: below the threshold = too weak to quantify, mostly under pKd 3.1 to 4
Conditions: plain residues with an end cap or a label only (N-terminal biotin on a linker: ado-ado)
Quantity Measured: pKd

Record excerpt, results attached:
ATKDKKITTV [EXOC4, Q96A65]    3.49
SKQFDKNAYV [CLDN10, P78369]    below the threshold
RDYTQSSSSL [GRM5, P41594]    below the threshold
GDSSRKEYFI [GYPC, P04921]    below the threshold
FVFESRKEIL [TBPL1, P62380]    below the threshold
QRYPGNQTTC [CCL24, O00175]    below the threshold
IGHEDLETAV [DGKI, O75912]    below the threshold
LLQEEWETVM [PTH1R, Q03431]    3.51
QKNKDREYYV [NRXN3, Q9HDB5]    below the threshold
VCMGDHWFDV [PRKN, O60260]    below the threshold

Sample NTALVESEDL [PALLS, Q8WX93;Q8WX93-1] — what was its pKd? below the threshold

Another binder to check: KEKASTETEC [TRPM1, Q7Z4N2] below the threshold

Another binder to check: KLQNPNQSVV [TYRP1, P17643] below the threshold
